B1: PPEF2 (parent)
chain: DHSGFISLDEFRQTWKLFSSHMNI

variants of: B1; experiment: protein stability index of a GFP-peptide fusion (GPS, HEK-293T) (PSI 1-6); higher = more stable; conditions: c terminus: a fixed tail appended;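 note: lentivirally expressed fusions sorted by FACS into six bins by GFP to DsRed ratio, PSI derived from sequencing read proportions per bin multiplied by bin number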
protein stability index listing for selected variants.

variant-name | protein stability index
W15E | 1.96
E10C | 1.95
I6P | 2.02

Where these numbers come from: the supplement of paper PMC10567573
